Cited source for all entries: patent US20050181376A1

System: human microsomal triglyceride transfer protein mRNA
Test: Antisense inhibition of human microsomal triglyceride transfer protein mRNA levels, quantitative real-time PCR; note: test concentration or dose not given here
Settings: averages from two experiments
Strand notation (5' to 3'): a small letter for the sugar, then the base; units joined by * are phosphorothioate-linked, units joined directly phosphodiester-linked; [ ] holds rarer units or linkages, { } end groups; capitals alone tell only the bases. e = 2'-O-(2-methoxyethyl) (MOE); [5mC] = 5-methylcytosine; d = 2'-deoxy (DNA)
observable: % INHIB (inhibition of human microsomal triglyceride transfer protein mRNA levels)

GAGCTTCATATACATTGATC (antisense eG*eA*eG*e[5mC]*eT*dT*d[5mC]*dA*dT*dA*dT*dA*d[5mC]*dA*dT*eT*eG*eA*eT*e[5mC]) [ISIS 144447] :: at least 30%
TCATATTGACCAGCAATCCT (antisense eT*e[5mC]*eA*eT*eA*dT*dT*dG*dA*d[5mC]*d[5mC]*dA*dG*d[5mC]*dA*eA*eT*e[5mC]*e[5mC]*eT) [ISIS 144409] :: at least 30%
GCGGTAGCCCACGCTGTCTT (antisense eG*e[5mC]*eG*eG*eT*dA*dG*d[5mC]*d[5mC]*d[5mC]*dA*d[5mC]*dG*d[5mC]*dT*eG*eT*e[5mC]*eT*eT) [ISIS 144412] :: at least 30%
